These entries and their values trace back to the supplement of paper PMC12042874.

Experiment: amyloid nucleation score (Sup35N fusion, yeast selection) (log enrichment); library NNK2; higher = more nucleation; inactive = no reads after selection;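 also: zero at mode of non-aggregating sequences after 7 days selection at 30°C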
# label = True if amyloid nucleation score >= 0.2 else False

See these solved cases before continuing.
IVKFKKRVDRHLSSGDQLVR : True
AVIMRFVYYDAYWGLWMVKE : True
SVKQGN : False

Query block: Test whether the substance FMLQVVGRVEVFH records amyloid nucleation score of 0.2 or higher.
Result block: True

Query block: API: above_or_equal(metric=amyloid nucleation score, cutoff=0.2) for item YMWVCACRMSLIHGLSGHHD
Result block: True

Query block: Reported amyloid nucleation score at or above 0.2? GVQTFVMTPTCKRNWLQDGR
Result block: True

---

Experiment: amyloid nucleation score (Sup35N fusion, yeast selection) (log enrichment); library NNK3; higher = more nucleation; inactive = no reads after selection
Assay Endpoint: amyloid nucleation score

Below, each entry is followed by its recorded amyloid nucleation score result.
RCNISTRFLLLWTFSFLLVY : inactive
SWMVQLVNTGVRWLVLANDA : inactive
SVLSLLLCYRCSRL : -0.081
DCLDNK : inactive
KNINVLYHICAALKSCAFCT : inactive

Please fill in: amyloid nucleation score reported for CNYCGPEAFGILFDYWTMSY = inactive

So for SYVCWDIFIGQRSNAALSTI , the logged amyloid nucleation score turned out to be inactive

GET /value?item= MFIFGGISFVMVSYLNRAHT &field=amyloid nucleation score returns 1.13

response.value for GMLGLMAGKNLEGADRL (field: amyloid nucleation score) = inactive

// recorded amyloid nucleation score for LEESFSKNLSKSFYIQ : inactive

Entry KFTFMQIKISPFDTCIQGWW , amyloid nucleation score reported as -0.067

The substance identified as WGCALCSYDACRLES registered its amyloid nucleation score at 2.52

Per the records, this substance ( IYLYYGRTYSTFLWEV ) has amyloid nucleation score equal to 0.762

Notebook: MMNGVGAWASFGLLNNYGGN , amyloid nucleation score read as 0.291

---

Quick list: amyloid nucleation score per entry.
Test: amyloid nucleation score (Sup35N fusion, yeast selection) (log enrichment); library NNK1; higher = more nucleation; inactive = no reads after selection
Lab note: jot the number down without any unit.

# annotated cases, reported amyloid nucleation score shown
CWLTRCCITWVIHRVMANLM : 0.51
LYSGFNRSKRSAVNSICAH : 0.368
GVRMLGFVRV : 0.261
RGSKVFSSDALVSRLARRVG : -0.462
SMRRAI : -0.263

In plain terms, FSVNILQQFIMGQSRICVGA has a documented amyloid nucleation score of -0.044

The value of amyloid nucleation score measured for the substance VFTIWSMFFIVRFNLWWKCA turned out to be 0.081

---

Test: amyloid nucleation score (Sup35N fusion, yeast selection) (log enrichment); library NNK2; higher = more nucleation; inactive = no reads after selection
Assay Endpoint: amyloid nucleation score

TVWVIVERYMGFLYFLYNTS : inactive
CNPIGIMHN : inactive
SFSNTAAYAKEYCRSYWVLV : inactive

---

Assay: amyloid nucleation score (Sup35N fusion, yeast selection) (log enrichment); library NNK1; higher = more nucleation; inactive = no reads after selection
Note: every record was labeled by where its amyloid nucleation score sits among I (below -0.03), II (-0.03 to below 0.6), III (0.6 or more)

A selection of reference data follows.
SVTWSYVTHLLLWLFGGAGL : III
LRNAMVMSLYN : I
GRPFALRWLDLGLLTDDPKG : I

Query block: Sort GIRMRGVSDLSLLRM into one of the categories.
Result block: II

Query block: Hello team, could you let me know which band the following substance falls into: LNCWLNRSVYVRLNRQDGKT
Result block: III

Query block: Please let me know in which category the item VMRVAYNDT belongs.
Result block: II

Query block: Which amyloid nucleation score category applies to TSHAVFNTVINLVVFVDQHC here?
Result block: III

Query block: Category lookup for the substance KMLVSDTNGESSPLL
Result block: II

Query block: Categorize the following entry: LSGPLNGEDFHRIFQVDFRW
Result block: II

Query block: Assign a bin to VYFGRISLWLNMH
Result block: I

Query block: Could you place LRRLSIANLFIFAFSWRFYW in its proper category? Many thanks.
Result block: III

Query block: Please classify: RIYKSWSFRTLRLPEC
Result block: III

Query block: Dear colleague, I would appreciate it if you could identify the bin for LMVISYRCDATGRRRVSLD and reply at your convenience.
Result block: III

Query block: Assign a category based on measured amyloid nucleation score for LCCYAVYGLCLMHTYNWGCD and give only the class name.
Result block: II

Query block: Place this substance in its band: CRTYYCHTHGPAQKDHYDRG
Result block: I

Query block: Quick check: band for WAIFLVR
Result block: I

---

Measured amyloid nucleation score of individual entries
Assay: amyloid nucleation score (Sup35N fusion, yeast selection) (log enrichment); library NNK2; higher = more nucleation; inactive = no reads after selection
API note: the answer field is a bare number with no unit suffix.

For orientation, consider the following solved cases.
DGVNAFNR : 0.203
YLTFLNASTSRYKLSLVPRR : 4.11
IEGDLFVRLRLRKLSQLFKA : 0.196

For reference, reported amyloid nucleation score for VQMYCRSSAQPRVAILAMSG stands at 1.16

For this substance ( KGGSRLCNFRSATKLSGPLL ), measured amyloid nucleation score is 0.597

Entry CLPGSH ; amyloid nucleation score = 0.535

# amyloid nucleation score of IEFWDYKYVLVSSFVFKHDV = -0.069

Record SCVGTN , field amyloid nucleation score: -0.062

Query KHMYYYCLYANELQVAVEMN yields amyloid nucleation score of -0.235

// sample VVAFRMSSDNAHSHDLPVPW , its amyloid nucleation score was 5.59

// amyloid nucleation score lookup, substance = QSYRVPKLFMNAAE , result: 0.197

Lab note: AWACYSECQDIRGNYSEVVL gave amyloid nucleation score of -0.671

---

Assay: amyloid nucleation score (Sup35N fusion, yeast selection) (log enrichment); library NNK3; higher = more nucleation; inactive = no reads after selection
Assay Endpoint: amyloid nucleation score

KQCIFNISLCSS : 0.008
YYLSTTGMWNFVSSNGALYG : -0.793
YKLRVNSVETNCTEILTLVE : inactive
SSMAVQRGGNYITMIYGH : inactive
CWTAPLSKFLRVWVTIPYNL : inactive
CAYRLNVGSVRFGKMHPRRS : inactive
NCMFPGYLYNVDITLMDV : inactive
YSGWTPKLAVH : inactive
NGMGKRGQRSEESISQRSTG : inactive
IVRFNSLHYFWETDKTI : inactive

Shift focus to the following entry.
Input YMLLVSGFA . Output amyloid nucleation score: inactive

---

Assay: amyloid nucleation score (Sup35N fusion, yeast selection) (log enrichment); library NNK1; higher = more nucleation; inactive = no reads after selection
Returns rule met if the recorded amyloid nucleation score is greater than or equal to 0.6, and rule not met otherwise.

Query block: Say whether VCTCIFRFQFLILCVRVCEL shows amyloid nucleation score of 0.6 or more.
Result block: rule not met

Query block: Reported amyloid nucleation score reaches at least 0.6 for VRRQFVPKSYLCCESYFNEV ?
Result block: rule not met

Query block: I'd appreciate it if you could say whether SSCYLCLVVYSFTS has amyloid nucleation score at least equal to 0.6.
Result block: rule met

Query block: Given the entry GSWATVWVVKDPEVADCCGL , answer whether its amyloid nucleation score meets or surpasses 0.6.
Result block: rule not met

Query block: Evaluate RAMKWLYVSNNDNMRKHFFS : amyloid nucleation score at minimum 0.6?
Result block: rule not met

Query block: # check: amyloid nucleation score of FMSICPSTNGRCACRWLRM is greater than or equal to 0.6
Result block: rule met

Query block: Quick check: does FSRISCFP have amyloid nucleation score greater than or equal to 0.6?
Result block: rule met

Query block: Check if amyloid nucleation score >= 0.6 (inclusive). Item: GGDRGHMFGMKSATVRWLAY
Result block: rule not met

Query block: Does TTCGCKMHVSAHR have a reported amyloid nucleation score of at least 0.6?
Result block: rule not met

Query block: Check if amyloid nucleation score >= 0.6 (inclusive). Item: TLYPHTGEGGKRLDLGCLSR
Result block: rule met

Query block: Could you verify whether the entry CFFDGICLDQERYVMNFRAF shows amyloid nucleation score of no less than 0.6?
Result block: rule not met

---

Assay: amyloid nucleation score (Sup35N fusion, yeast selection) (log enrichment); library NNK1; higher = more nucleation; inactive = no reads after selection
Assay Endpoint: amyloid nucleation score
Response field accepts a number only; no unit should be typed.

amyloid nucleation score recorded for this substance, WSNTCRASYFRPCGCG , is 0.391

Sample TFIAGAI ; amyloid nucleation score observed: -0.44

Quick note, amyloid nucleation score for SITADLGHNSVALGVALLVI landed at -0.057

Given item CLCLKVFLQKVVRGCNR , the value recorded as its amyloid nucleation score is 1.01

So for TVNYTCYYGYIIFGYASSVK , the logged amyloid nucleation score turned out to be 3.63

The substance listed as ICAPVEIL has a reported amyloid nucleation score of -0.176

Record PFRMQNDIVRDQYSVKLQWF . Reported amyloid nucleation score: 3.29

Consider VFAMPYYSCGVLWNRGNW . Its measured amyloid nucleation score is 0.566

Form: substance = IMPSCKLLAAHVADYVFLMR ; amyloid nucleation score = 0.863
